targetSystem: hCB2 (Homo sapiens, UniProt P34972)
Sequence (P34972 whole entry): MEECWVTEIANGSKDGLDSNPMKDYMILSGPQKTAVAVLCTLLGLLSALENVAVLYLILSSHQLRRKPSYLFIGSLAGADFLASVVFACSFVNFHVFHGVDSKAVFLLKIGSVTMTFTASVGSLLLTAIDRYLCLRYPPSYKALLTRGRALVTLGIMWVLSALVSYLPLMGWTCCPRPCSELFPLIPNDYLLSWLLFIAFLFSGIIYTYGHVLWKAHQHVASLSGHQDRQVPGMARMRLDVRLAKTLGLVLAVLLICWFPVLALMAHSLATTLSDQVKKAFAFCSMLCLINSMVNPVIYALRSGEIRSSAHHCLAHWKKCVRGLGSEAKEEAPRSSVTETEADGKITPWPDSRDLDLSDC
measurementDescription: In vitro binding assay using hCB2-CHO membranes, [3H]-CP-55,940 displacement (Protocol IV)
Design: expressed in transfected cells; host or cells: CHO (hCB2-CHO, generated in-house)
conditionDetails: 1 h; hCB2-CHO membranes, [3H]-CP-55,940 displacement; read-out: % Displacement Protocol IV
observationType: inhibition at 0.3 µM (%)
Give the number; % is assumed, so skip it.

• O=C(NCc1ccccc1)c1nn(-c2ccc(Cl)cc2)c2c1C1CCC2C1 (centres unmarked) [Example 220] = 25.3

[in] Let me know recorded inhibition at 0.3 µM for O=C(NCc1cccnc1)c1nn(-c2ccc(Cl)cc2)c2c1C1CC3CC(C1)CC2C3 [Example 104] , thanks.
[out] 20.2

[in] Let me know recorded inhibition at 0.3 µM for Cc1ccc(-n2nc(C(=O)NNc3ccc(Cl)cc3Cl)c3c2C2CC4CC(CC3C4)C2)cc1 [Example 161] , thanks.
[out] 39.4

[in] Let me know recorded inhibition at 0.3 µM for CC(C)(C)NC(=O)c1n[nH]c2c1C1(c3ccc(Cl)c(Cl)c3)CCC2C1 (centres unmarked) [Example 325] , thanks.
[out] 99.6

[in] Let me know recorded inhibition at 0.3 µM for O=C(NNc1ccccc1Cl)c1nn(-c2ccc(Cl)cc2Cl)c2c1C1CCC2C1 (centres unmarked) [Example 257] , thanks.
[out] 83.9

[in] Let me know recorded inhibition at 0.3 µM for O=C(NNc1ccccc1)c1nn(-c2ccc(Br)cc2)c2c1C1CCC2C1 (centres unmarked) [Example 277] , thanks.
[out] 22.1

[in] Let me know recorded inhibition at 0.3 µM for O=C(NN1CCOCC1)c1nn(-c2ccc(Cl)cc2)c2c1C1CC3CC(C1)CC2C3 [Example 103] , thanks.
[out] 6.99

[in] Let me know recorded inhibition at 0.3 µM for O=C(NNc1ccc(F)cc1)c1nn(-c2ccc(Cl)cc2)c2c1C1CCC2C1 (centres unmarked) [Example 234] , thanks.
[out] 10.6

Cited source: patent US7923465B2
